- Read-out: Cytochrome P450 (CYP1A2), CYP1A2 (gene 1544)
- Measurement Description: LTEA_HepaRG_CYP1A2: Life Technologies and Expression Analysis (LTEA) Assay for Cytochrome P450 (CYP1A2) using HepaRG (AID 2283479);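 on AC50: TaqMan qRT-PCR transcript level normalized to ACTB GAPDH and POLR2A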
- Setup Conditions: mRNA level, 48 h; actives raise or lower the signal
Calls of active or inactive are those of the source. How the source made its calls: active means hit-call score of the fitted dose curve at least 0.9, where 1 is the maximum; inactive means score below 0.9.

Compound: CN(C)c1nc(=O)n(C2CCCCC2)c(=O)n1C
AC50: inactive
--
Compound: Cc1ccc(O)c(C)c1
AC50: inactive
--
Compound: Cc1ccccc1[N+](=O)[O-]
AC50: inactive
--
Compound: O=C(O)C(F)(F)C(F)(F)C(F)(F)C(F)(F)C(F)(F)C(F)(F)C(F)(F)C(F)(F)C(F)(F)F
AC50: 22.2 µM (active)
--
Compound: N#Cc1ccc(N(CC(N)=O)CC(F)(F)F)cc1C(F)(F)F
AC50: inactive
--
Compound: ClC1=C(Cl)[C@]2(Cl)[C@@H]3[C@@H]4C[C@@H]([C@H]5O[C@@H]45)[C@@H]3[C@@]1(Cl)C2(Cl)Cl
AC50: inactive
--
Compound: ClC(Cl)=C(c1ccc(Cl)cc1)c1ccc(Cl)cc1
AC50: inactive
--
Compound: CCCN(CCC)N=O
AC50: inactive
--
Compound: Cc1ccccc1O
AC50: inactive
--
Compound: Oc1ccc(Cl)cc1Cl
AC50: inactive
--
Compound: Cc1cccc([N+](=O)[O-])c1
AC50: inactive
--
Compound: O=S(=O)(O)C(F)(F)C(F)(F)C(F)(F)C(F)(F)F
AC50: inactive
--
Compound: Cc1cccc(C)c1N
AC50: inactive
--
Compound: CC(C)C(=O)OCC(C)(C)C(OC(=O)C(C)C)C(C)C (stereo unspecified)
AC50: inactive
--
Compound: CN(C)CCO
AC50: inactive
--
Compound: CCC(C)c1cc([N+](=O)[O-])cc([N+](=O)[O-])c1O (stereo unspecified)
AC50: 2.66 µM (active)
--
Compound: CO/C=C(/C(=O)OC)c1ccccc1COc1cccc(C(F)(F)F)n1
AC50: 7.53 µM (active)
--
Compound: c1cc2ccc3cccc4ccc(c1)c2c34
AC50: 50 µM (active)
--
Compound: O=NN(c1ccccc1)c1ccccc1
AC50: 50 µM (active)
--
Compound: CC1=C2C[C@H]3[C@@H](CC=C4C[C@@H](O)CC[C@@]43C)[C@@H]2CC[C@]12O[C@@H]1C[C@H](C)CN[C@H]1[C@H]2C
AC50: inactive
--
Compound: CCCCCCCCCC[N+](C)(C)CCCCCCCCCC
AC50: inactive

###

- Read-out: Monokine induced gamma interferon (MIG), CXCL9 (gene 4283)
- Measurement Description: BSK_SAg_MIG: BioMAP Diversity Plus: SAg Assay for Monokine induced gamma interferon (MIG) Biomarker Activity (AID 2283092)
- Setup Conditions: primary human HUVEC with PBMC; actives raise or lower the signal
The source made the active and inactive calls. How the source made its calls: active means hit-call score of the fitted dose curve at least 0.9, where 1 is the maximum; inactive means score below 0.9.
Labels: Yes = active, No = inactive

Compound: CCCN(CCC)N=O
Assigned Class: No
//
Compound: O=C(O)C(F)(F)C(F)(F)C(F)(F)C(F)(F)C(F)(F)C(F)(F)C(F)(F)C(F)(F)F
Assigned Class: No
//
Compound: Cc1cc(O)ccc1Cl
Assigned Class: No
//
Compound: COc1ccc(O)c(C(C)(C)C)c1
Assigned Class: No
//
Compound: Cc1ccc(O)c(C)c1
Assigned Class: No
//
Compound: Clc1ccc(C(c2ccccc2Cl)C(Cl)(Cl)Cl)cc1 (configuration not stated)
Assigned Class: Yes
//
Compound: CCC(C)(CC)c1cc(NC(=O)c2c(OC)cccc2OC)on1
Assigned Class: No

###

- Read-out: Macrophage colony-stimulating factor (MCSF), CSF1 (gene 1435)
- Measurement Description: BSK_hDFCGF_MCSF: BioMAP Diversity Plus: hDFCGF Assay for Macrophage colony-stimulating factor (MCSF) Biomarker Activity (AID 2283060)
- Setup Conditions: primary human foreskin fibroblasts; actives raise or lower the signal
The source made the active and inactive calls. The calls were made as follows: active = hit-call score of the fitted dose curve at least 0.9, where 1 is the maximum; inactive = score below 0.9.

Smiles Repr: Cc1ccc(O)c(C)c1
outcome: inactive

Smiles Repr: CCCCCCCCOC(=O)c1ccccc1C(=O)OCCCCCCCC
outcome: inactive

Smiles Repr: CCNc1nc(NC(C)C)nc(SC)n1
outcome: inactive

Smiles Repr: Cc1ccccc1CO[C@@H]1C[C@@]2(C(C)C)CC[C@]1(C)O2
outcome: inactive

###

- Measurement Description: ATG_DR4_LXR_CIS: Attagene CIS-FACTORIAL HepG2 Assay for human Liver X Receptor (LXR), DR4 submotif (AID 2282929)
- Setup Conditions: HepG2 Attagene DR4 cis-reporter, mRNA transcription; actives raise or lower the signal
Calls of active or inactive are those of the source. Rule for the calls: active = hit-call score of the fitted dose curve at least 0.9, where 1 is the maximum; inactive = score below 0.9.
Labels: T (active), F (inactive)

Smiles Repr: CC1=C2C[C@H]3[C@@H](CC=C4C[C@@H](O)CC[C@@]43C)[C@@H]2CC[C@]12O[C@@H]1C[C@H](C)CN[C@H]1[C@H]2C
Assigned Class: T
//
Smiles Repr: COS(=O)(=O)OC
Assigned Class: F
//
Smiles Repr: Cc1ccccc1[N+](=O)[O-]
Assigned Class: F
//
Smiles Repr: CCSC(=O)N(CC)C1CCCCC1
Assigned Class: F

###

- Read-out: MYC, MYC (gene 4609)
- Measurement Description: LTEA_HepaRG_MYC: Life Technologies and Expression Analysis (LTEA) Assay for MYC using HepaRG (AID 2283518)
- Setup Conditions: mRNA level, 48 h; actives raise or lower the signal
Calls of active or inactive are those of the source. How the source made its calls: active means hit-call score of the fitted dose curve at least 0.9, where 1 is the maximum; inactive means score below 0.9.
Labels: Y for active, N for inactive

Molecule: Clc1ccc(Cl)cc1
Assigned Class: N
--
Molecule: COc1ccc(O)c(C(C)(C)C)c1
Assigned Class: N
--
Molecule: Cc1cc(-c2ccc(N)c(C)c2)ccc1N
Assigned Class: N
--
Molecule: CC(C)C(=O)OCC(C)(C)C(OC(=O)C(C)C)C(C)C (configuration not stated)
Assigned Class: N
--
Molecule: C=CC(N)=O
Assigned Class: N
--
Molecule: Cc1ccccc1CO[C@@H]1C[C@@]2(C(C)C)CC[C@]1(C)O2
Assigned Class: N
--
Molecule: CN(C)CCO
Assigned Class: N
--
Molecule: Cc1cccc(C)c1N
Assigned Class: N
--
Molecule: CCOC(=O)C(O)(c1ccc(Cl)cc1)c1ccc(Cl)cc1
Assigned Class: N
--
Molecule: CC(c1ccc(O)cc1)(c1ccc(O)cc1)c1ccc(O)cc1
Assigned Class: Y
--
Molecule: Cc1ccccc1[N+](=O)[O-]
Assigned Class: N
--
Molecule: Oc1ccc(C(c2ccc(O)cc2)(C(F)(F)F)C(F)(F)F)cc1
Assigned Class: Y
--
Molecule: CCC(C)(c1ccc(O)cc1)c1ccc(O)cc1
Assigned Class: N
--
Molecule: NS(=O)(=O)C(F)(F)C(F)(F)C(F)(F)C(F)(F)C(F)(F)C(F)(F)C(F)(F)C(F)(F)F
Assigned Class: Y
--
Molecule: Cc1ccc(O)c(C)c1
Assigned Class: N
--
Molecule: ClC1=C(Cl)[C@]2(Cl)[C@@H]3[C@@H]4C[C@@H]([C@H]5O[C@@H]45)[C@@H]3[C@@]1(Cl)C2(Cl)Cl
Assigned Class: Y
--
Molecule: Nc1ccc(-c2ccc(N)cc2)cc1
Assigned Class: N

###

- Measurement Description: Tanguay_ZF_120hpf_PFIN_legacy: (Legacy) Oregon State University Tanguay Lab 120 Hour Post-fertilization zebrafish Assay for Pectoral Fin Malformation (AID 2283648);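 further: each larva judged yes or no for fin defect by brightfield with dead larvae skipped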
- Method: Tanguay_ZF_120hpf_legacy is a whole embryo, multiplexed endpoint assay using zebrafish larvae exposed for 120 hours post fertilization on a 96-well plate.Tanguay_ZF_120hpf_PFIN_legacy is one of one assay component(s) measured or calculated from the Tanguay_ZF_120hpf_legacy assay. […] This assay endpoint, Tanguay_ZF_120hpf_PFIN_legacy, was analyzed in the positive analysis fitting direction relative to DMSO as the negative control and baseline of activity. […]
Records with an inconclusive call do not appear. The source made the active and inactive calls. Rule for the calls: active = hit-call score of the fitted dose curve at least 0.9, where 1 is the maximum; inconclusive = response in the unintended direction; inactive = score below 0.9.
Assay Metric: AC50

Smiles Repr: CCC(C)(CC)c1cc(NC(=O)c2c(OC)cccc2OC)on1
Endpoint Result: inactive
//
Smiles Repr: C=CC(N)=O
Endpoint Result: inactive
//
Smiles Repr: Cc1cccc([N+](=O)[O-])c1
Endpoint Result: inactive
//
Smiles Repr: C[C@]12CCC(=O)C=C1CC[C@@H]1[C@@H]2CC[C@]2(C)C(=O)CC[C@@H]12
Endpoint Result: 35.1 µM (active)
//
Smiles Repr: Cc1ccccc1CO[C@@H]1C[C@@]2(C(C)C)CC[C@]1(C)O2
Endpoint Result: inactive
//
Smiles Repr: ClC(Cl)=C(c1ccc(Cl)cc1)c1ccc(Cl)cc1
Endpoint Result: inactive

###

- Measurement Description: APR_HepG2_p53Act_24hr: Apredica 24-hour HepG2 Assay for p53 Activation (AID 2282913);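 further: p53 protein immunofluorescence averaged per cell in HepG2 with Hoechst nuclei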
- Setup Conditions: high-content imaging, actives raise or lower the signal
The source made the active and inactive calls. Rule for the calls: active = hit-call score of the fitted dose curve at least 0.9, where 1 is the maximum; inactive = score below 0.9.

Molecule: CCC(C)c1cc([N+](=O)[O-])cc([N+](=O)[O-])c1O (stereo not drawn)
outcome: inactive
//
Molecule: C[C@]12CCC(=O)C=C1CC[C@@H]1[C@@H]2CC[C@@]2(C)[C@H]1CC[C@]2(C)O
outcome: inactive
//
Molecule: COS(=O)(=O)OC
outcome: inactive
